Values were extracted from PubChem BioAssay AID1159580.

normalized growth values for the molecules below.
protocol_summary: chemical genetic growth profiling, strain panel (AID 1159580);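 also: tested at 20 µM; growth read once vehicle control cultures reached saturation at 30 °C; 1 = growth at the plate median or of vehicle wells; lower values mean less growth of the strain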
run_parameters: S. cerevisiae deletion strains, growth OD, locus YDR363W, strain ESC2, hits give low values
About 2,000 (36%) of roughly 5,500 compounds were called active. Roughly 18% stayed inconclusive and do not appear here. This is one part of the list.
Number only, please.

Example entries begin here.
NCC(O)c1ccc(O)c(O)c1 (stereo unspecified); 0.991
O=C(O)C1=CCNCC1; 0.979
O=C(O)c1cccnc1Nc1cccc(C(F)(F)F)c1; 1
O=[N+]([O-])c1cc(O)c(O)c([N+](=O)[O-])c1; 1.06
OCC1NCC(O)C(O)C1O (stereo unspecified); 1.04
CNC[C@H](O)c1ccc(O)c(O)c1; 0.993
COc1cc(CNC(=O)CCCCCCC(C)C)ccc1O; 0.974
CC(C)(C)c1ccc(C(O)CCCN2CCC(C(O)(c3ccccc3)c3ccccc3)CC2)cc1 (stereo unspecified); 1

normalized growth for CC(O)C(O)[C@H]1CNc2nc(N)[nH]c(=O)c2N1 (stereo partly specified) ?
1.01

normalized growth for O=[N+]([O-])c1ccc2nc(N3CCNCC3)ccc2c1 ?
1.04

---

normalized growth values for the molecules below.
protocol_summary: chemical genetic growth profiling, strain panel (AID 1159580)
run_parameters: S. cerevisiae deletion strains, growth OD, locus YOR080W, strain dia2, hits give low values
Hit rate of the full screen: of about 5,500 compounds, about 2,000 (36%) were called active. About 18% were inconclusive and are not listed. This is one part of the list.
Number only, please.

Example entries begin here.
CC(C)=CCC/C(C)=C/CC/C(C)=C/CC/C(C)=C/CC/C(C)=C/CC/C(C)=C/CC/C(C)=C/CC/C(C)=C/CC/C(C)=C/CO; 1
CC(=O)c1c(O)c(C)c(O)c2c1OC1=CC(=O)C(C(C)=O)C(=O)C12C (stereo unspecified); 0.975
CN/C(=C\[N+](=O)[O-])NCCSCc1ccc(CN(C)C)o1; 0.99
CC(C)=CCC[C@](C)(O)C1CC=C(C)CC1 (stereo partly specified); 0.979

normalized growth for Nc1ncnc2c1ncn2C1C[C@H](O)[C@@H](CO)O1 (stereo partly specified) ?
1.02

normalized growth for C=CC(C)(O)CC/C=C(\C)CCC=C(C)C (stereo unspecified) ?
0.972

normalized growth for O=c1[nH]c(=O)n(C2C[C@@H](O)[C@@H](CO)O2)cc1F (stereo partly specified) ?
1

normalized growth for Nc1ncnc2c1ncn2[C@@H]1O[C@H](CO)[C@@H](O)[C@H]1O ?
0.995

---

protocol_summary: chemical genetic growth profiling, strain panel (AID 1159580)
run_parameters: S. cerevisiae deletion strains, growth OD, locus YJL187C, strain SWE1, hits give low values
Screen size: about 5,500 compounds; about 2,000 (36%) were called active. Roughly 18% stayed inconclusive and do not appear here. The list shows a part of the results.
assay_endpoint: normalized growth
Number only, please.

O=C(O[C@@H]1Cc2c(O)cc(O)cc2O[C@@H]1c1cc(O)c(O)c(O)c1-c1c([C@H]2Oc3cc(O)cc(O)c3C[C@H]2O)cc(O)c(O)c1O)c1cc(O)c(O)c(O)c1; 0.981
CO[C@H]1/C=C/O[C@@]2(C)Oc3c(C)c(O)c4c(O)c(c(/C=N/N5CCN(C)CC5)c(O)c4c3C2=O)NC(=O)/C(C)=C\C=C\C(C)[C@H](O)[C@@H](C)[C@@H](O)[C@@H](C)[C@@H](OC(C)=O)[C@@H]1C (stereo not given in full); 1.02
CC(=O)O[C@@H]1CC2C(C)(C)C=CC(=O)[C@]2(C)C2CC[C@@]3(C)[C@H](c4ccoc4)OC(=O)C4OC43[C@@]21C (stereo not given in full); 1
CC(C)NCC(O)c1ccc(O)c(O)c1 (stereo not given); 1

Let us move to another entry and its normalized growth.
normalized growth for Cc1occc(=O)c1O ?
0.977

---

protocol_summary: chemical genetic growth profiling, strain panel (AID 1159580)
run_parameters: S. cerevisiae deletion strains, growth OD, locus YAR019C, strain CDC15
Out of some 5,500 compounds screened, about 2,000 (36%) were called active. About 18% were inconclusive and are not listed. No stated cut-off is given here; in the data, active means normalized growth mostly below about 0.91 (no sharp cut-off); inconclusive means no clear call, values can overlap the other calls; inactive means mostly above about 0.92. The list shows a part of the results.
Just give me one of these, please: yes (1) for active, no (0) for inactive

O=C(c1ccccc1)c1cc(Cl)ccc1NC(=S)Nc1ccc(F)cc1; no (0)
Cc1cc(Cl)ccc1NC(=S)NNC(=S)Nc1ccc(F)cc1; no (0)
O=C(Nc1ccc(N2CCOCC2)cc1)c1ccc(-n2cccn2)cc1; no (0)
N#CCC(=O)NNC(=S)Nc1ccc(Cl)c(Cl)c1; no (0)
Cc1cccc(Cl)c1/C=N\NC(N)=S; yes (1)

Now consider the entry below.
Which outcome was assigned to O=C(NC(=O)c1c(F)cccc1Cl)OCc1ccc(Cl)cc1Cl in this test?
no (0)

---

protocol_summary: chemical genetic growth profiling, strain panel (AID 1159580)
run_parameters: S. cerevisiae deletion strains, growth OD, locus YGL078C, strain dbp3
Hit rate of the full screen: of about 5,500 compounds, about 2,000 (36%) were called active. Inconclusive results (about 18%) are left out. No stated cut-off is given here; in the data, active means normalized growth mostly below about 0.91 (no sharp cut-off); inconclusive means no clear call, values can overlap the other calls; inactive means mostly above about 0.92. This is one part of the list.
Just give me one of these, please: active, inactive

Look over these answered cases.
NCCCC[C@H](N[C@@H](CCc1ccccc1)C(=O)O)C(=O)N1CCC[C@H]1C(=O)O; inactive
C=CC(C1=CC(=O)C(OC)=CC1=O)c1ccc(OC)cc1 (configuration not stated); inactive
C=CC(C1=CC(=O)C(OC)=CC1=O)c1ccccc1 (configuration not stated); inactive
CCCc1occc(=O)c1/C=C/O; inactive
CO[C@H]1/C=C/O[C@@]2(C)Oc3c(C)c(O)c4c(O)c(c(/C=N/N5CCN(C)CC5)c(O)c4c3C2=O)NC(=O)/C(C)=C\C=C\C(C)[C@H](O)[C@@H](C)[C@@H](O)[C@@H](C)[C@@H](OC(C)=O)[C@@H]1C (some centres not stated); inactive

Which outcome was assigned to CNC[C@@H](O)c1ccc(O)c(O)c1 in this test?
inactive

Which outcome was assigned to Cc1occc(=O)c1O in this test?
inactive

Which outcome was assigned to Nc1ncn([C@@H]2O[C@H](CO)[C@@H](O)[C@H]2O)c(=O)n1 in this test?
inactive

Which outcome was assigned to CCCCC1(COC(=O)CCC(=O)O)C(=O)N(c2ccccc2)N(c2ccccc2)C1=O in this test?
inactive

Which outcome was assigned to CC(C)NCC(O)c1ccc(O)c(O)c1 (configuration not stated) in this test?
inactive

Which outcome was assigned to C[C@H](N)[C@H](O)c1ccc(O)c(O)c1 in this test?
inactive

Which outcome was assigned to CC(=O)Nc1ccc(S(=O)(=O)Nc2ccc([N+](=O)[O-])cc2)cc1 in this test?
inactive

---

protocol_summary: chemical genetic growth profiling, strain panel (AID 1159580);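 also: tested at 20 µM; growth read once vehicle control cultures reached saturation at 30 °C; 1 = growth at the plate median or of vehicle wells; lower values mean less growth of the strain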
run_parameters: S. cerevisiae deletion strains, growth OD, locus YIL073C, strain SPO22, hits give low values
The campaign covered roughly 5,500 compounds. About 2,000 (36%) were called active. Another 18% or so got no clear call; they are omitted. The list shows a part of the results.
assay_endpoint: normalized growth
Number only, please.

normalized growth for Cc1ccc(/C(=C\CN2CCCC2)c2ccccn2)cc1 ?
1.01

normalized growth for CC/C(=C(\c1ccccc1)c1ccc(OCCN(C)C)cc1)c1ccccc1 ?
0.158

normalized growth for CN(C)CCOC(C)(c1ccccc1)c1ccccn1 (centres undefined) ?
0.924

normalized growth for COc1ccc(C(Cl)=C(c2ccc(OC)cc2)c2ccc(OC)cc2)cc1 ?
1.03

---

protocol_summary: chemical genetic growth profiling, strain panel (AID 1159580);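 also: tested at 20 µM; growth read once vehicle control cultures reached saturation at 30 °C; 1 = growth at the plate median or of vehicle wells; lower values mean less growth of the strain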
run_parameters: S. cerevisiae deletion strains, growth OD, locus YPR025C, strain CCL1, hits give low values
In all, about 5,500 compounds went through this assay and about 2,000 (36%) were called active. Roughly 18% stayed inconclusive and do not appear here. The list shows a part of the results.
assay_endpoint: normalized growth
Number only, please.

Example entries begin here.
CCOc1ccc(/C=C(\C)[N+](=O)[O-])cc1OC; 0.969
Cc1cc(Cl)ccc1NC(=S)NNC(=S)Nc1ccc(F)cc1; 0.973
O=[N+]([O-])c1ccccc1CS(=O)(=O)c1nc2ccccc2s1; 0.892
O=[N+]([O-])/C=C/c1ccc(F)cc1; 0.0876
FC(F)(F)c1cccc(NC(=S)Nc2csc(C(F)(F)F)c2-c2ccccc2)c1; 0.992

Let us move to another entry and its normalized growth.
normalized growth for Cc1c(C)c(C)c(CSC(N)=Nc2ccc(F)cc2)c(C)c1C ?
1

---

protocol_summary: chemical genetic growth profiling, strain panel (AID 1159580);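 also: tested at 20 µM; growth read once vehicle control cultures reached saturation at 30 °C; 1 = growth at the plate median or of vehicle wells; lower values mean less growth of the strain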
run_parameters: S. cerevisiae deletion strains, growth OD, locus YOR106W, strain vam3, hits give low values
Hit rate of the full screen: of about 5,500 compounds, about 2,000 (36%) were called active. Another 18% or so got no clear call; they are omitted. Some of the results follow.
assay_endpoint: normalized growth

CCCC(C)C1(CC)C(=O)N=C(S)NC1=O (stereo unspecified); 0.979 (inactive)
C1CNCCN1; 1.02 (inactive)
O=[N+]([O-])c1cc(O)c(O)c([N+](=O)[O-])c1; 0.983 (inactive)
CCCC(C)C1(CC)C(=O)NC(=O)NC1=O (stereo unspecified); 1.02 (inactive)
CCOC(=O)c1oc2c(OC)c(O)cc(O)c2c(=O)c1-c1cc(OC)c(OC)c(OC)c1; 0.975 (inactive)

normalized growth for COc1cc(OC)c2c(=O)c(-c3ccccc3)c(C)oc2c1OC ?
0.994 (inactive)
